Provenance of the data: patent US11780832B2

Listed here are molecules together with their documented MIC.
# Test system: Klebsiella pneumoniae KPC-2
readout: MIC (µg/mL)

{"molecule": "CC(C)(O/N=C(\\C(=O)N[C@@H]1C(=O)N2C(C(=O)[O-])=C(C[n+]3ccccc3)CS[C@H]12)c1csc(N)n1)C(=O)O [Ceftazidime, ceftazidime, reference compound]", "qualifier_operator": ">", "result": 32}
{"molecule": "CC(C)(O/N=C(\\C(=O)N[C@H]1CON(C2(C(=O)O)C[C@@H](N3C(=O)c4cc(O)c(O)cc4C3=O)C(=O)O2)C1=O)c1csc(N)n1)C(=O)O (stereo partly shown)", "qualifier_operator": "≤", "result": 0.015}
{"molecule": "Nc1nc(/C(=N/OC2(C(=O)O)CC3CCC(C2)O3)C(=O)N[C@H]2CON(C3(C(=O)O)C[C@H](N4Cc5cc(O)c(O)cc5C4=O)C(=O)O3)C2=O)cs1 (stereo partly shown)", "qualifier_operator": "=", "result": 0.03}
{"molecule": "Nc1nc(/C(=N/OC2(C(=O)O)CCC(F)(F)CC2)C(=O)N[C@H]2CON(C3(C(=O)O)C[C@H](N4C(=O)c5cc(O)c(O)cc5C4=O)C(=O)O3)C2=O)cs1 (stereo partly shown)", "qualifier_operator": "=", "result": 0.03}
{"molecule": "Nc1nc(/C(=N/OC(CO)(CCl)C(=O)O)C(=O)N[C@H]2CON(C3(C(=O)O)C[C@H](N4C(=O)c5cc(O)c(O)cc5C4=O)C(=O)O3)C2=O)cs1 (stereo partly shown)", "qualifier_operator": "=", "result": 0.03}
{"molecule": "Nc1nc(/C(=N/OC2(C(=O)O)CC2)C(=O)N[C@H]2CON(C3(C(=O)O)C[C@H](N4C(=O)c5cc(O)c(O)cc5C4=O)C(=O)O3)C2=O)ns1 (stereo partly shown)", "qualifier_operator": "=", "result": 0.06}
{"molecule": "Nc1nc(/C(=N/OC2(C(=O)O)CC3CCC(C2)O3)C(=O)N[C@H]2CON(C3(C(=O)O)C[C@H](N4C(=O)c5cc(O)c(O)nc5C4=O)C(=O)O3)C2=O)cs1 (stereo partly shown)", "qualifier_operator": "=", "result": 0.06}
